B1: tRNA (parent)
chain: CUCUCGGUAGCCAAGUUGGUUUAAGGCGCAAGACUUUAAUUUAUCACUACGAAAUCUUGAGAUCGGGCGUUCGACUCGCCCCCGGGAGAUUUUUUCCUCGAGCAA

Variants of: B1
Assay: nonsense suppression (GFP-seq) (ratio to wild type); higher = more function; SUP4oc tRNA, yeast GFP reporter sort-seq
This sample holds only a part of the variants without activity.
Exercise: for every item that follows, state its recorded nonsense suppression.
Answers are plain numbers.

These recorded examples may help you get a feel for the data.
The recorded nonsense suppression for entry U55C U63C equals 0.156

The recorded nonsense suppression for entry U8C G85U equals 0.0537

variant C3U U8C , nonsense suppression observed: 0.0916

# map each variant to its nonsense suppression
1. A9C A30U
2. U4G G85C
3. C3U A89C
4. U17C A24G
5. U20G C82U
6. A9U A54U
7. U17G A24C

0.0886
0.813
0.0874
0.0323
0.838
0.222
0.653

Consider the following items and state reported nonsense suppression for each.
1. C5U G85A
2. U16G G25C
3. A9G C75U
4. U4C G61C
5. C1G G61A U76C
6. U20G G28A C82U
7. U20C A60G

1. 0.08
2. 0.2
3. 1.17
4. 0.86
5. 0.0371
6. 0.239
7. 0.0437

Sourced from the RNAGym collection of RNA variant scans (doi:10.1101/gad.245936.114)
